Data provenance: PubChem BioAssay AID1325

Reported inhibition is given for each of the following molecules.
# study target: Broad substrate specificity ATP-binding cassette transporter ABCG2 (Homo sapiens)
# experiment description: ABCG2 efflux pump inhibitors, primary screen, multiplex with ABCB1, IgMXP3 cells, flow cytometry (AID 1325);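 further: 0% = DMSO and 100% = nicardipine control wells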
# experimental setup: JC-1 efflux, at 6.6 µM, hits give high values
Hit rate of the full screen: of about 190,000 compounds, about 200 (0.11%) were called active. The sample as a whole holds a higher share of actives than the screen did.
The reply should contain only the number, in %.

* Cc1cc(NC(=O)CSc2nc3cc(Cl)ccc3c(=O)n2Cc2ccco2)no1 | 5.22
* CCOc1ccc(-n2cnnn2)cc1S(=O)(=O)N1CCC(C)CC1C (stereo not given) | 0.53
* CC(C)CCN1C(=O)c2ccc(C(=O)Nc3cccc(S(N)(=O)=O)c3)cc2C1=O | -4.62
* Cc1cccc(N2C(=O)SC(SC(=Nc3ccccc3)Nc3ccccc3)C2=O)c1 (stereo not given) | 0.89

Consider the molecule COc1cccc2cc(/C(C)=N/NC(=O)c3ccco3)oc12 . State its measured inhibition.
6.63
